- System Tested: SpNanR (Streptococcus pneumoniae, UniProt A0A0H2ZPE9 1-283)
- Assay Explanation: fluorescence-detection AUC (sedimentation velocity); no effector; Hill n 2.3; MST: 20 mM Tris-HCl pH 8.0, 300 mM NaCl, 0.05% Tween-20, 20 C, 20 nM FAM-DNA; AUC: 50 nM FAM-DNA, 0.019-5 uM SpNanR, buffer not in the material
- Condition Details: protein: recombinant; tags: none; chain copies: 2; label: 5'-FAM on sense strand
Measured Parameter: Kd
Answer format: number, then unit.

For the binder shown here, nanE recognition sequence (site 2), FAM (dsDNA) DNA 1: TCTGAAAGTACTTTTAGA DNA 2: TCTAAAAGTACTTTCAGA , give the reported Kd. 476 nM
